Numbers sourced from PubChem BioAssay AID1030.

- target-under-test: Aldehyde dehydrogenase 1A1 (Homo sapiens) (UniProt P00352)
- Sequence (P00352 whole entry, looked up): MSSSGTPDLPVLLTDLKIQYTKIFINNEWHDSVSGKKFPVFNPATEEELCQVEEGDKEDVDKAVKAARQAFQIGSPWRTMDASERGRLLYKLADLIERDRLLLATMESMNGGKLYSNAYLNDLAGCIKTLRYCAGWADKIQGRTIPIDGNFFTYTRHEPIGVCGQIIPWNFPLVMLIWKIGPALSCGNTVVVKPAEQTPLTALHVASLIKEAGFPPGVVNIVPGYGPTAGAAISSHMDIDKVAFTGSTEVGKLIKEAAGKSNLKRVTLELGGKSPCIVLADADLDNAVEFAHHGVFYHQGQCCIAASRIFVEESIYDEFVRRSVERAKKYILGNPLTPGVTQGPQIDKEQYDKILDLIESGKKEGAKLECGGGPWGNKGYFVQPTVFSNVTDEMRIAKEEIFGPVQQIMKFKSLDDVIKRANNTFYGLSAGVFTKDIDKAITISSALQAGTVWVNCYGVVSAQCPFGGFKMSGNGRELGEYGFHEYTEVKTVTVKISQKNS
- experiment: qHTS Assay for Inhibitors of Aldehyde Dehydrogenase 1 (ALDH1A1); also: potency is read from the fitted curve at half-maximal effect
- measurement-conditions: Purified ALDH1A1, NADH fluorescence, propionaldehyde substrate; series mostly up to 75.3 µM
Hit rate of the full screen: of about 220,000 compounds, about 16,000 (7.3%) were called active. Another 25% or so got no clear call; they are omitted. This excerpt belongs to a sample that is enriched for actives.
endpoint: Potency

CN(C)c1ccc(/C=C2\CC3C4CC=C5CC(O)CCC5(C)C4CCC3(C)C2=O)cc1 (stereo not drawn) = inactive
O=C(CCN1CCCCC1)NCC(=O)Nc1ccc(Br)cc1C(=O)c1ccccc1 = inactive
N#CC1=C(N)Oc2c(c(=O)oc3ccccc23)C1c1ccccc1OC(=O)c1cccs1 (stereo not drawn) = inactive
CN(C)CCCN=Cc1c(O)n(Cc2ccco2)c(=O)[nH]c1=O = inactive
CC(C)n1c(=O)c(C=Nc2ccc(Br)cc2)c(O)n(Cc2ccco2)c1=O = 14.1 µM (active)
CCCCC/C=C\C/C=C\C/C=C\C=C\[C@H](CCCC(=O)O)OO = inactive

## Input For "COc1cc(-n2c(=S)[nH]c3ccc(C)cc3c2=O)c(Cl)cc1Cl" , write its Potency.
## Output inactive

## Input For CN1C2CC3CC1C(O3)C2O (stereo not drawn) , write its Potency.
## Output inactive

## Input For CCOC(=O)C(O)(c1ccc(N=Cc2ccccc2O)c(C)c1)C(F)(F)F (stereo not drawn) , write its Potency.
## Output inactive
